MEASURED ON: T1, Suc-AAPI-pNA
T1 chain: AAPI
CONDITION NOTES: scale: relative to the substrate with the highest activity
Entries and their relative activity (initial increase in OD405)
QUANTITY KIND: relative activity (initial increase in OD405)

Thermostable alkaline protease BH0855 from Bacillus halodurans (protein) QTVPWGISFINTQQAHNRGIFGNGARVAVLDTGIASHPDLRIAGGASFISSEPSYHDNNGHGTHVAGTIAALNNSIGVLGVAPSADLYAVKVLDRNGSGSLASVAQGIEWAINNNMHIINMSLGSTSGSSTLELAVNRANNAGILLVGAAGNTGRQGVNYPARYSGVMAVAAVDQNGQRASFSTYGPEIEISAPGVNVNSTYTGNRYVSLSGTSMATPHVAGVAALVKSRYPSYTNNQIRQRINQTATYLGSPSLYGNGLVHAGRATQ    0.0005
Lysyl endopeptidase from Achromobacter lyticus (protein) GVSGSCNIDVVCPEGDGRRDIIRAVGAYSKSGTLACTGSLVNNTANDRKMYFLTAHHCGMGTASTAASIVVYWNYQNSTCRAPNTPASGANGDGSMSQTQSGSTVKATYATSDFTLLELNNAANPAFNLFWAGWDRRDQNYPGAIAIHHPNVAEKRISNSTSPTSFVAWGGGAGTTHLNVQWQPSGGVTEPGSSGSPIYSPEKRVLGQLHGGPSSCSATGTNRSDQYGRVFTSWTGGGAAASRLSDWLDPASTGAQFIDGLDSGGGTP    0.0017

All values here come from patent US20230240966.
